- Assay Protocol: Primary screen of SERS intensities of CyNAMLA-functionalized AuNPs (compact Raman scanner)
- Format: physicochemical
- Condition Notes: SERS spectra of CyNAMLA-functionalized AuNPs; excitation at 785 nm, laser power 60 mW
Consider the reported Raman intensity of an entry and match it to a band in range A: < 2000; range B: ≥ 2000 and < 10000; range C: ≥ 10000

Challenge: Pick a category. Item: CCCN1/C(=C/C=C2\CCCC(/C=C/C3=[N+](CCCNC(=O)CCCCC4CCSS4)c4ccccc4C3(C)C)=C2N(CCc2ccc(OC)c(OC)c2)C(C)=O)C(C)(C)c2ccccc21.O=C([O-])C(F)(F)F (stereo not drawn)
Response given: range B

----------
- Assay Protocol: Primary screening of photostability of the CyNA library (time-course fluorescence, 8 h)
- Format: physicochemical
- Condition Notes: 10 μM in HEPES 100 mM pH 7.4, 2% DMSO
- Protocol: As a primary evaluation of photo stability, the decrease in fluorescence intensity of the 80 CyNA compounds was measured (see Table 2). The average decrease in fluorescence intensity after 8 hours of irradiation by a xenon lamp was approximately 18%. […] 10-μM CyNA solutions in 100 mM HEPES buffer (pH 7.4) containing 2% DMSO were placed in a 96-well black plate, and fluorescence intensity measurements were recorded every 10 minutes for a total period of 8 hours (excitation-emission: 790-820 nm). […]
Property Label: max RFU, maximum relative fluorescence units
Just the number.

Reference set, count: 2
> print(dat)
                                   compound  endpoint.value
1  CCCN1/C(=C/C=C2\CCCC(/C=C/C3=[N+](CCC)c4ccccc4C3(C)C)=C2N(C(C)=O)C2CCN(Cc3ccccc3)CC2)C(C)(C)c2ccccc21 [CyNA-107]           275.3
2  CCCN1/C(=C/C=C2\CCCC(/C=C/C3=[N+](CCC)c4ccccc4C3(C)C)=C2N(CCCN(C)C)C(C)=O)C(C)(C)c2ccccc21 [CyNA-427]          1247.4

# next compound below
Challenge: So what does the record say about max RFU, maximum relative fluorescence units for CCCN1/C(=C/C=C2\CCCC(/C=C/C3=[N+](CCC)c4ccccc4C3(C)C)=C2N(CCc2ccc(O)cc2)C(C)=O)C(C)(C)c2ccccc21 [CyNA-346] ?
Response given: 434.2

----------
- Assay Protocol: Absorbance and fluorescence maximum wavelengths and quantum yields of the CyNA library
- Assay type: physicochemical
- Condition Notes: in DMSO, Cardiogreen as standard
Property Label: φ, quantum yield
Lab note: jot down the number only; don't add units.

Record excerpt, results attached:
> print(dat)
                              sample.smiles    property.label  endpoint.value
1  CCCN1/C(=C/C=C2\CCCC(/C=C/C3=[N+](CCC)c4ccccc4C3(C)C)=C2N(CC(C)C)C(C)=O)C(C)(C)c2ccccc21  φ, quantum yield            0.04
2  CCCN1/C(=C/C=C2\CCCC(/C=C/C3=[N+](CCC)c4ccccc4C3(C)C)=C2N(CCCOC(C)C)C(C)=O)C(C)(C)c2ccccc21  φ, quantum yield            0.12

Here is another compound to look at.
Challenge: For the compound CCCN1/C(=C/C=C2\CCCC(/C=C/C3=[N+](CCC)c4ccccc4C3(C)C)=C2N(Cc2cc(OC)cc(OC)c2)C(C)=O)C(C)(C)c2ccccc21 , what φ, quantum yield is on record?
Response given: 0.10
